conditions: [M+H]+; instrument: DT; stepped-field
MEASURED ENDPOINT: collision cross section (N2) (Å²)

Solved cases (2 shown):
QUERY: Find the measured collision cross section (N2) of O=C(O)[C@@H]1CCCN1 and report it.
RESULT: 126.22

QUERY: Indicate the recorded collision cross section (N2) value for this compound: CC[C@H](C)[C@H](NC(=O)[C@H](Cc1ccc(O)cc1)NC(=O)[C@@H](NC(=O)[C@H](CCCN=C(N)N)NC(=O)[C@@H](N)CC(=O)O)C(C)C)C(=O)N[C@@H](Cc1cnc[nH]1)C(=O)N1CCC[C@H]1C(=O)N[C@@H](Cc1ccccc1)C(=O)N[C@@H](Cc1cnc[nH]1)C(=O)N[C@@H](CC(C)C)C(=O)O
RESULT: 357.31

P = CN1c2c(nc(N)[nH]c2=O)NCC1CNc1ccc(C(=O)N[C@H](CCC(=O)O)C(=O)O)cc1 (stereo not given in full)
Q = CC(C)C[C@H](N)C(=O)O
R = NC(N)=NCCC[C@H](NC(=O)[C@H](Cc1ccccc1)NC(=O)[C@@H]1CCCN1C(=O)[C@H](CO)NC(=O)[C@H](Cc1ccccc1)NC(=O)CNC(=O)[C@@H]1CCCN1C(=O)[C@@H]1CCCN1C(=O)[C@@H](N)CCCN=C(N)N)C(=O)O
QUERY: Arrange by collision cross section (N2), high to low. Form field (ranking): labels in requested order.
RESULT: R, P, Q
(R: 315.25 Å², P: 197.52 Å², Q: 135.56 Å²)
